Biological target: WT human SLACK (Homo sapiens, UniProt Q5JUK3)
Construct: host or cells: CHO-K1
Sequence (Q5JUK3 1-1235 isoform Q5JUK3-3): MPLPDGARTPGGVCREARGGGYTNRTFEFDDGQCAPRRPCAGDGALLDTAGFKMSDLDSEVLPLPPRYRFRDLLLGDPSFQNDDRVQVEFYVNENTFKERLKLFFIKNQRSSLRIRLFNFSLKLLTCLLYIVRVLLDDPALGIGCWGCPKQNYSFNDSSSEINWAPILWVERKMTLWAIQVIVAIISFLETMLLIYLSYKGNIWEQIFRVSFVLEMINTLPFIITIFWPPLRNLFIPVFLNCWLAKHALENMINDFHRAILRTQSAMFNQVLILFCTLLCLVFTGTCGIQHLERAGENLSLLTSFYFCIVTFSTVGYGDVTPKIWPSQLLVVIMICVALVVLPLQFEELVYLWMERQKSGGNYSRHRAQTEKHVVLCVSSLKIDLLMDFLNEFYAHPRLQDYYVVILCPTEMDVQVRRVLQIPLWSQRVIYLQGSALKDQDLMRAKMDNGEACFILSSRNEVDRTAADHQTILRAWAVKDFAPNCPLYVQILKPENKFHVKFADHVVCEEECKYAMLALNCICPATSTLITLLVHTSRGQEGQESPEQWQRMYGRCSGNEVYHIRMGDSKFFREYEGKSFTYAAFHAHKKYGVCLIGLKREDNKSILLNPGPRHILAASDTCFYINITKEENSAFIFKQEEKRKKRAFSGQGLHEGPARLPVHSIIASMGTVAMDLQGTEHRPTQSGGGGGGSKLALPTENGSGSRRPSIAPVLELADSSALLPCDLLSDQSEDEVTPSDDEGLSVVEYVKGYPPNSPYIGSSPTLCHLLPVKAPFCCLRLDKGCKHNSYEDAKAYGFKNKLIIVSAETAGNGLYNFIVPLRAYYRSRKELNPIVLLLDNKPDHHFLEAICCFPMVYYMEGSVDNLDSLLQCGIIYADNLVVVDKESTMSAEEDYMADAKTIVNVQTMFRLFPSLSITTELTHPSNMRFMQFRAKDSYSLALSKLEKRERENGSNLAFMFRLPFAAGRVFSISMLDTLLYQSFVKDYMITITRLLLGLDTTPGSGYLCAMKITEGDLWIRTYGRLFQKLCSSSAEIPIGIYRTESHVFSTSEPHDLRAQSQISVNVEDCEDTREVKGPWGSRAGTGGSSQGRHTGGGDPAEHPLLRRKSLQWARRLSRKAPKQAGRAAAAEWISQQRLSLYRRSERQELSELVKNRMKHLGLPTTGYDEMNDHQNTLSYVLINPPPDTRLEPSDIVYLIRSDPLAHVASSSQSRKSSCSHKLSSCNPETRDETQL
Experiment: Whole-cell automated patch clamp (APC) in CHO-K1 cells stably expressing WT human SLACK
Type: cell-based
Settings: maximum inhibition at 30 µM test compound standardized to VU0606170 (set at 100%); WT human SLACK
List of SLACK Imax values.
Provide the reading as a plain figure in %.

Examples from the recorded data:
CC(C)(Oc1ccc(Cl)cc1)C(=O)Nc1cnc(Oc2ccccc2F)cn1 [Analog 90] | 50
CC(C)(Oc1ccc(C#N)cc1)C(=O)Nc1cnc(Oc2ccccc2F)nc1 [Analog 59] | 109

In: Which SLACK Imax value is on record for CN(c1ccc(C#N)cc1)c1ncc(NC(=O)C(C)(C)Oc2ccc(Cl)cc2)cn1 [Analog 66] ?
Out: 95
